# Tested on: CCK-B (Cavia porcellus)
# Sequence (H0VZC5 1-426): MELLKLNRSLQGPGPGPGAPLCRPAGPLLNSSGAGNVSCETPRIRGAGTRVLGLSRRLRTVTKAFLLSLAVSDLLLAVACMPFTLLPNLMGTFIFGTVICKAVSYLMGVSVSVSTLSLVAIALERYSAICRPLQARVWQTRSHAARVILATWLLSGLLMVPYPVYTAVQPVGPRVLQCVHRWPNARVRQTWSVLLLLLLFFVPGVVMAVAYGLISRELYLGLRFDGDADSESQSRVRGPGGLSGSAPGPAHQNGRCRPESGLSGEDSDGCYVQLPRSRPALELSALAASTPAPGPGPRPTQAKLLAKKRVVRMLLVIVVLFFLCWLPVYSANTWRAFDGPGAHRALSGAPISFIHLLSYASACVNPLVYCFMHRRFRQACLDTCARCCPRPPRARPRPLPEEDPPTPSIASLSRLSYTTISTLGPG
Assay metric: IC50

Log: CCK-B (Cavia porcellus), compound O=C(N[C@@H]1C(=O)N(c2ccccc2)C[C@H]1C(=O)O)c1ccc(Cl)c(Cl)c1 (relative stereo) [Example 35 (trans)] , IC50 = > 10 µM

Value (IC50, CCK-B (Cavia porcellus)) for record CCCCCN1C[C@@H](C(=O)O)[C@@H](NC(=O)Nc2ccc(Cl)c(Cl)c2)C1=O (relative stereo) = 6 µM

Form field, IC50 with CCK-B (Cavia porcellus), item O=C(N[C@H]1C(=O)N(c2ccccc2)C[C@H]1C(=O)O)c1ccc(Cl)cc1 (relative stereo) [Example 46 (cis)] : > 10 µM
